Measured inhibition of SARS-CoV-2 cytopathic effect values are reported for all entries that follow.
Test system: Vero E6 infected with SARS-CoV-2
Assay: inhibition of SARS-CoV-2 cytopathic effect; higher = more antiviral protection, active = above 15
Conditions: 833.33 nM; 48 h
observable: inhibition of SARS-CoV-2 cytopathic effect (%)

molecule="Cc1cc(O)c2c(=O)c3c(O)cc(O)c4c5c(O)cc(O)c6c(=O)c7c(O)cc(C)c8c1c2c(c34)c(c78)c65 [hypericin]" experimental_target="Vero E6 infected with SARS-CoV-2" recorded_result=-0.08
molecule="COc1cc2c(cc1OC)-c1c(C)c3ccc(OC)c(OC)c3c[n+]1CC2 [dehydrocorydaline]" experimental_target="Vero E6 infected with SARS-CoV-2" recorded_result=-1.37
molecule="C#C[C@]1(O)CC[C@H]2[C@@H]3CCC4=C(CCC(=O)C4)[C@H]3CC[C@@]21C [noretynodrel]" experimental_target="Vero E6 infected with SARS-CoV-2" recorded_result=-5.6
molecule=Cc1ccc(-c2nc3ccc(C)cn3c2CC(=O)N(C)C)cc1 experimental_target="Vero E6 infected with SARS-CoV-2" recorded_result=1.14
molecule="CCC(=O)O[C@H]1[C@H](O[C@@H]2[C@@H](C)[C@H](O[C@H]3C[C@@](C)(OC)[C@@H](O)[C@H](C)O3)[C@@H](C)C(=O)O[C@H](CC)[C@@](C)(O)[C@H](O)[C@@H](C)C(=O)[C@H](C)C[C@@]2(C)O)O[C@H](C)C[C@@H]1N(C)C [erythromycin-estolate]" experimental_target="Vero E6 infected with SARS-CoV-2" recorded_result=2.85
molecule="O=C(Oc1ccccc1)c1ccccc1O [phenyl-salicylate]" experimental_target="Vero E6 infected with SARS-CoV-2" recorded_result=3.43
molecule=O=[N+]([O-])c1cnc(Sc2nnc(O)n2-c2ccc3c(c2)OCCO3)s1 experimental_target="Vero E6 infected with SARS-CoV-2" recorded_result=0.05
